B1: Neutrophil cytosol factor 2, residues 456 to 514; numbered along this chain, P19878 (parent)
chain: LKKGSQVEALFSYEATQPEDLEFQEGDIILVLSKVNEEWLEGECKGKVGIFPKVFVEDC

Variants of: B1
test summary: abundance fitness (aPCA) (normalised: wild type 0, dead -1); higher = more abundant; growth selection in yeast, the domain comes from the species named
test settings: Homo sapiens
So I've got a bunch of variants here, and I need their abundance fitness values.
The reply should be a number, written without any unit.

Q: Given the variant C44H , what is its reported abundance fitness?
Ans: -0.806

Q: Please do the same for G46N as well.
Ans: 0.219

Q: Please do the same for V56E as well.
Ans: -0.415

Q: Please do the same for I28G as well.
Ans: -0.245

Q: Please do the same for D58T as well.
Ans: 0.133

Q: Please do the same for F55E as well.
Ans: -0.821

Q: Please do the same for V35L as well.
Ans: -0.096

Q: Please do the same for L30P as well.
Ans: 0.04

Q: Please do the same for F11E as well.
Ans: -0.572

Q: Please do the same for V35R as well.
Ans: -0.235

Q: Please do the same for K53E as well.
Ans: -0.353
